Task for the reader: assign each of the following molecules its reported IC50.
Molecular target: 3',5'-cyclic-AMP phosphodiesterase 4B (Homo sapiens, UniProt Q07343)
Sequence (Q07343 whole entry): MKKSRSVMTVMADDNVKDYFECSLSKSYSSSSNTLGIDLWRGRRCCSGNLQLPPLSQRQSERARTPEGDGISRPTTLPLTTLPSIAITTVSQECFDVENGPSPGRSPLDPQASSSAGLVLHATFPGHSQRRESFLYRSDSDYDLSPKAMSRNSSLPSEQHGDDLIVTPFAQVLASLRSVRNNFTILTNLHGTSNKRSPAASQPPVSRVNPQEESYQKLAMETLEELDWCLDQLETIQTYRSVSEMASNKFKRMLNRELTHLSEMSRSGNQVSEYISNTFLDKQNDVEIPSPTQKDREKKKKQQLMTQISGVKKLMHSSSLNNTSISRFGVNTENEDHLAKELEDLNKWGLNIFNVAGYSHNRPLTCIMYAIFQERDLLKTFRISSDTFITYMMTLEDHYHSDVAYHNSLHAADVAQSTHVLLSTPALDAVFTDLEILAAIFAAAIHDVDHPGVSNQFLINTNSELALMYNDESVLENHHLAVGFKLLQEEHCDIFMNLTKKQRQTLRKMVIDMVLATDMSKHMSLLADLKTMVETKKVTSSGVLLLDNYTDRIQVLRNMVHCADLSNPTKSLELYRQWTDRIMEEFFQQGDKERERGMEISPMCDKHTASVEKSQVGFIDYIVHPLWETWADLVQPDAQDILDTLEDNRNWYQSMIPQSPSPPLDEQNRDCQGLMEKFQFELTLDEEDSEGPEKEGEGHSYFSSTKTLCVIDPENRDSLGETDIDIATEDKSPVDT
Assay: Inhibition of human recombinant PDE4B by scintillation proximity assay
One number for each entry, in nM.

Worked examples, 10 molecules total:
| smiles.notation | unit.string | observed.measurement |
| --- | --- | --- |
| COc1cccc(Nc2c(-c3nnc(C)o3)cnc3ccc(S(C)(=O)=O)cc23)c1 | nM | 20000 |
| CS(=O)(=O)c1ccc2ncc(C(N)=O)c(Nc3cccnc3)c2c1 | nM | 100 |
| COc1cc(Nc2c(C(N)=O)cnc3ccc(S(C)(=O)=O)cc23)ccc1F | nM | 31.6 |
| CS(=O)(=O)c1ccc2ncc(C(N)=O)c(Nc3cccc(Cl)c3)c2c1 | nM | 15.8 |
| COc1cccc(Nc2cc(C(N)=O)nc3ccc(S(C)(=O)=O)cc23)c1 | nM | 7940 |
| COc1cccc(Nc2c(C(N)=O)cnc3ccc(S(=O)(=O)c4ccccc4)cc23)c1 | nM | 1.58 |
| COc1cccc(Nc2c(C#N)cnc3ccc(S(C)(=O)=O)cc23)c1 | nM | 501 |
| COc1cc(Nc2c(C(N)=O)cnc3c(OC)cc(S(C)(=O)=O)cc23)ccc1F | nM | 5.01 |
| COc1cccc(Nc2c(C(=O)O)cnc3ccc(S(=O)(=O)c4ccccc4)cc23)c1 | nM | 12600 |
| CS(=O)(=O)c1ccc2ncc(C(N)=O)c(Nc3cccc(C(=O)O)c3)c2c1 | nM | 5010 |

Dear colleague, could you send me IC50 for each of the items below? Thanks.
1. CS(=O)(=O)c1ccc2ncc(C(N)=O)c(Oc3cccc(Cl)c3)c2c1
2. COc1cccc(Nc2c(-c3nc(C)no3)cnc3ccc(S(C)(=O)=O)cc23)c1

1. 3160
2. 15800

For every listed record, write down its IC50.
1. CS(=O)(=O)c1ccc2ncc(C(N)=O)c(Nc3cccc4c3CCO4)c2c1
2. CN(c1cccc(Cl)c1)c1c(C(N)=O)cnc2ccc(S(C)(=O)=O)cc12
3. COc1cc(Nc2c(C(N)=O)cnc3c(C)cc(S(C)(=O)=O)cc23)ccc1F
4. CS(=O)(=O)c1ccc2ncc(C(N)=O)c(Nc3cccc(C#N)c3)c2c1
5. CS(=O)(=O)c1ccc2ncc(C(N)=O)c(Sc3cccc(Cl)c3)c2c1

[2.51, 1000, 0.316, 20, 20000]
